Molecular target: Jak2 (UniProt O60674)
Sequence (O60674 whole entry, looked up): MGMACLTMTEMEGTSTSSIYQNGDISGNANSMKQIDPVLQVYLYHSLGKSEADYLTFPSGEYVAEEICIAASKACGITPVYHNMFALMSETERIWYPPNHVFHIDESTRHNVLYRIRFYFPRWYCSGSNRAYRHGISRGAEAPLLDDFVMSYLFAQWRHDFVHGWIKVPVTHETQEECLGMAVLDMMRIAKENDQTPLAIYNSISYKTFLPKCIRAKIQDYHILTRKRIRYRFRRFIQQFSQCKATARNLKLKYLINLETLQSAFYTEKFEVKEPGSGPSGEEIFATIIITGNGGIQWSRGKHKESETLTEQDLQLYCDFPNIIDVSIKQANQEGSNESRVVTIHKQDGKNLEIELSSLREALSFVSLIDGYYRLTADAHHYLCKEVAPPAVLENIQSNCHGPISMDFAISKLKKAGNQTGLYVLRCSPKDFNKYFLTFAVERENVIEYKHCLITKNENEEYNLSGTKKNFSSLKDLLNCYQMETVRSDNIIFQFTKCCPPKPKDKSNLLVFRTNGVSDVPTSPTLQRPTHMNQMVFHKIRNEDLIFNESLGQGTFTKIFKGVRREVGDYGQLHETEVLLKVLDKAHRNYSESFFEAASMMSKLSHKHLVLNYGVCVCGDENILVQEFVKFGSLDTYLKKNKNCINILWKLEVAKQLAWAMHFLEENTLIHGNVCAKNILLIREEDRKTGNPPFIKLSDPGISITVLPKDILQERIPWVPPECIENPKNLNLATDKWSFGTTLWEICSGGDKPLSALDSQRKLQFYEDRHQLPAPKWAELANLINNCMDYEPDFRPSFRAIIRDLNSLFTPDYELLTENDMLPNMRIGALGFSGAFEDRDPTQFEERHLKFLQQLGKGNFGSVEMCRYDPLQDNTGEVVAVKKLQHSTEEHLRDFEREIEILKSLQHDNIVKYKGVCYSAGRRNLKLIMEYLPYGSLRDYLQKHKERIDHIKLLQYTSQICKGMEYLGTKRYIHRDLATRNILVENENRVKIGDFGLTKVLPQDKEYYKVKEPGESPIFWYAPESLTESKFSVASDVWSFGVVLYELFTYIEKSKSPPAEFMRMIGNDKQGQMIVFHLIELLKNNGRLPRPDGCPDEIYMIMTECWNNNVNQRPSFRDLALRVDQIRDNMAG
Assay: phosphorylation enrichment, bacterial display (enrichment ratio); higher = better substrate or ligand; peptides without Tyr show the background;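 also: 11-residue human phosphosite peptides and single-mutation variants displayed on the E. coli surface, counted by deep sequencing, each peptide's frequency after selection divided by its frequency in the unselected input library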;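 also: frequency after pTyr selection over input frequency; kinase dosed for 20-30% of maximal phosphorylation in three min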
readout name: phosphorylation enrichment

[[record]]
sequence_chain = "KWKQKYEESQS [MYH6_Y1462_E1457K]"
system_name = "Jak2 (UniProt O60674)"
assay_value = 0.85

[[record]]
sequence_chain = "LEGKEYRMSGE [KRT3_Y511_E509K]"
system_name = "Jak2 (UniProt O60674)"
assay_value = 0.923

[[record]]
sequence_chain = "GVRYIYTIDGS [DCX_Y105]"
system_name = "Jak2 (UniProt O60674)"
assay_value = 0.937

[[record]]
sequence_chain = "PNRILYGDFQQ [MYH7_Y715_R719Q]"
system_name = "Jak2 (UniProt O60674)"
assay_value = 0.861

[[record]]
sequence_chain = "AGIVDYNIIGW [MYH7_Y588]"
system_name = "Jak2 (UniProt O60674)"
assay_value = 0.877

[[record]]
sequence_chain = "QEIATYRRLRE [KRT17_Y384_L388R]"
system_name = "Jak2 (UniProt O60674)"
assay_value = 0.558

[[record]]
sequence_chain = "GCKNHYDKDKP [THAP1_Y14_R13H]"
system_name = "Jak2 (UniProt O60674)"
assay_value = 0.616

[[record]]
sequence_chain = "SAASGYSDVTD [DTX2_Y425_T421A]"
system_name = "Jak2 (UniProt O60674)"
assay_value = 0.963

[[record]]
sequence_chain = "KPLMPSMRYSR [SMARCE1_Y73_Y73S]"
system_name = "Jak2 (UniProt O60674)"
assay_value = 0.555

[[record]]
sequence_chain = "NFAKMYCNPDA [KNL1_Y489_YF]"
system_name = "Jak2 (UniProt O60674)"
assay_value = 0.766

[[record]]
sequence_chain = "KRGVSYILKLA [SERPINB1_Y84_A82V]"
system_name = "Jak2 (UniProt O60674)"
assay_value = 1.34

[[record]]
sequence_chain = "LYEDRYLLGPS [ASS1_Y87_T91P]"
system_name = "Jak2 (UniProt O60674)"
assay_value = 0.812

[[record]]
sequence_chain = "RDMNAYIRPSP [MMAA_Y207]"
system_name = "Jak2 (UniProt O60674)"
assay_value = 1.57

[[record]]
sequence_chain = "PHMQTYEVDLN [SDHB_Y61]"
system_name = "Jak2 (UniProt O60674)"
assay_value = 1.12

[[record]]
sequence_chain = "IGEGTYGQVYK [CDK13_Y716]"
system_name = "Jak2 (UniProt O60674)"
assay_value = 0.822

[[record]]
sequence_chain = "FLTQHYDAKPQ [ANG_Y38]"
system_name = "Jak2 (UniProt O60674)"
assay_value = 0.869

[[record]]
sequence_chain = "IDGLEYLHSQG [STK11_Y166]"
system_name = "Jak2 (UniProt O60674)"
assay_value = 0.796

[[record]]
sequence_chain = "PADQAYSWFQH [NDST1_Y711_R709Q_YF]"
system_name = "Jak2 (UniProt O60674)"
assay_value = 0.855

[[record]]
sequence_chain = "RSRSSYTHSLN [MYCT1_Y116_G119S]"
system_name = "Jak2 (UniProt O60674)"
assay_value = 0.948

[[record]]
sequence_chain = "LIEQAYDNLHE [PRPF8_Y871_P874L]"
system_name = "Jak2 (UniProt O60674)"
assay_value = 0.593

[[record]]
sequence_chain = "PGPQSYPTVTG [PAX5_Y299_I301T]"
system_name = "Jak2 (UniProt O60674)"
assay_value = 0.892

[[record]]
sequence_chain = "RYVSRYIYNRE [HLA-DQB1_Y62_T60S]"
system_name = "Jak2 (UniProt O60674)"
assay_value = 0.92

[[record]]
sequence_chain = "MHRRQYELLGG [GNAS_Y391_L388R]"
system_name = "Jak2 (UniProt O60674)"
assay_value = 0.48

[[record]]
sequence_chain = "DLAGRYFALKS [CKB_Y173_YF]"
system_name = "Jak2 (UniProt O60674)"
assay_value = 1.57

[[record]]
sequence_chain = "QGCSIYKDYYR [PLA2G2D_Y82]"
system_name = "Jak2 (UniProt O60674)"
assay_value = 1.08

[[record]]
sequence_chain = "ISMAGYSIPEL [EDAR_Y406_T403M]"
system_name = "Jak2 (UniProt O60674)"
assay_value = 0.68

[[record]]
sequence_chain = "ADRSCYDLSCH [GARS1_Y467]"
system_name = "Jak2 (UniProt O60674)"
assay_value = 0.798

[[record]]
sequence_chain = "GPRSLYNGLVA [UCP2_Y79]"
system_name = "Jak2 (UniProt O60674)"
assay_value = 0.502

[[record]]
sequence_chain = "DEYLEYRRIVG [FAM221A_Y20]"
system_name = "Jak2 (UniProt O60674)"
assay_value = 0.91


* * *

Biological target: FGFR3 (UniProt P22607)
Sequence (P22607 whole entry, looked up): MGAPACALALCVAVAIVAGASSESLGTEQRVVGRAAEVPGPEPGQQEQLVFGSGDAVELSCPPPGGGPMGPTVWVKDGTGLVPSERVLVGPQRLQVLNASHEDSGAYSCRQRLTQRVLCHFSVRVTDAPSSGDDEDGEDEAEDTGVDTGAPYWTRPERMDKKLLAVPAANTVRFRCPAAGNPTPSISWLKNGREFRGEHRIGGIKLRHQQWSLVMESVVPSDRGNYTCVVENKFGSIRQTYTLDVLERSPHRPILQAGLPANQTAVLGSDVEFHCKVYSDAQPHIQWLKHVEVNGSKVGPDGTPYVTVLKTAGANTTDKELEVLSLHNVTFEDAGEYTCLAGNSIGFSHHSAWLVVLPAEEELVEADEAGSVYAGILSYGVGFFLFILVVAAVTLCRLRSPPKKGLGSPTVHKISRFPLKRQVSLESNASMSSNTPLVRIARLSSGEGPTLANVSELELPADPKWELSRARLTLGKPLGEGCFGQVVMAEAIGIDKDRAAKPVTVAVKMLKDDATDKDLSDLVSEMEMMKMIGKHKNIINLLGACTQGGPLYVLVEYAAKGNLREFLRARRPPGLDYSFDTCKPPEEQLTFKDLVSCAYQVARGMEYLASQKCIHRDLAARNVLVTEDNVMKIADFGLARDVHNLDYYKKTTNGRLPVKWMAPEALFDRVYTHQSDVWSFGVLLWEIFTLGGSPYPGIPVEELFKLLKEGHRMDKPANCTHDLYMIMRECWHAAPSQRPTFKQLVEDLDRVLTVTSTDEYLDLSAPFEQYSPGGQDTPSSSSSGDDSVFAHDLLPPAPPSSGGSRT
Experiment: phosphorylation enrichment, bacterial display (enrichment ratio); higher = better substrate or ligand; peptides without Tyr show the background
phosphorylation enrichment overview
readout name: phosphorylation enrichment

[[record]]
sequence_chain = "GVIRHSVVCST [BTK_Y334_Y334S]"
readout_name = "phosphorylation enrichment"
assay_value = 0.51

[[record]]
sequence_chain = "QFPDVYAREEV [CRX_Y67_YF]"
readout_name = "phosphorylation enrichment"
assay_value = 0.693

[[record]]
sequence_chain = "RDMNAYIRPSP [MMAA_Y207]"
readout_name = "phosphorylation enrichment"
assay_value = 1.02


* * *

phosphorylation enrichment overview
Target: FGFR1 (UniProt P11362)
Sequence (P11362 whole entry, looked up): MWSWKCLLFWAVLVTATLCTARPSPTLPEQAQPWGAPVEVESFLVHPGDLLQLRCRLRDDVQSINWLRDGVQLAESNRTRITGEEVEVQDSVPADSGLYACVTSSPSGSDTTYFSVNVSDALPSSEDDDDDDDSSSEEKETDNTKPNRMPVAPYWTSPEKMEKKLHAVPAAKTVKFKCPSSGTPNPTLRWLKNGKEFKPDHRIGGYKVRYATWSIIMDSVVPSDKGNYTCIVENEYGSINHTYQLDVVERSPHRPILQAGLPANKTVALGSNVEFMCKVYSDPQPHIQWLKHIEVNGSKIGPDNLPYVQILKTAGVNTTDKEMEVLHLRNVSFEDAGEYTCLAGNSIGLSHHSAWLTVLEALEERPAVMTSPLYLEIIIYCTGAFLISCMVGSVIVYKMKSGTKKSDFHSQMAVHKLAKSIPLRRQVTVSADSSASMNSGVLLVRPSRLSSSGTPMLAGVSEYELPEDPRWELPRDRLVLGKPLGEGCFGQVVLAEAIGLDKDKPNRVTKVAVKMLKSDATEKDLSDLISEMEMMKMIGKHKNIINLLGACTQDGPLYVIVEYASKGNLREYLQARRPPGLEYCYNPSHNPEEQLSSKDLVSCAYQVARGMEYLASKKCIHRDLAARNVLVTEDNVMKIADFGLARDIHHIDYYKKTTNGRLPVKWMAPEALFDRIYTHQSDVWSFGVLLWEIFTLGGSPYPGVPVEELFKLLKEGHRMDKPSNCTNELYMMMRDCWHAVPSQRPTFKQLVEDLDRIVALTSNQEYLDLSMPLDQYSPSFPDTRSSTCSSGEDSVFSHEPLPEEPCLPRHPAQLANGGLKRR
Assay: phosphorylation enrichment, bacterial display (enrichment ratio); higher = better substrate or ligand; peptides without Tyr show the background
readout name: phosphorylation enrichment

[[record]]
sequence_chain = "SGADSYEMEED [EGFR_Y316_C311S]"
assay_value = 0.822

[[record]]
sequence_chain = "ESLSSYRESAK [APOC2_Y47_W48R]"
assay_value = 0.382

[[record]]
sequence_chain = "MENFIYESMRF [CYP19A1_Y361_YF]"
assay_value = 0.551

[[record]]
sequence_chain = "EKDSNYCLCRT [ASIC2_Y357]"
assay_value = 0.556

[[record]]
sequence_chain = "VEGISYDFIPT [CBS_Y308_G307S]"
assay_value = 0.564


* * *

Tested on: c-Src
Test: phosphorylation enrichment, bacterial display (enrichment ratio); higher = better substrate or ligand; peptides without Tyr show the background
# label = bin(measured phosphorylation enrichment), where bins are bottom end (below 0.5), midrange (0.5 to below 0.7), top end (0.7 or more)

[[record]]
sequence_chain = "GFQPEYGQPAG [SYP_Y278_D277E_YF]"
category = "midrange"

[[record]]
sequence_chain = "GGMAEYTRLHN [EHHADH_Y4]"
category = "bottom end"

[[record]]
sequence_chain = "SDYYAYSPVQE [H6PD_Y449_R453Q]"
category = "top end"

[[record]]
sequence_chain = "DNLSNYVFQGQ [GRIN2A_Y978_N976S]"
category = "bottom end"

[[record]]
sequence_chain = "EGLKVYINGTL [ADGRD1_Y183_V184I]"
category = "bottom end"

[[record]]
sequence_chain = "RPASVYTKRCS [CPT2_Y508]"
category = "bottom end"

[[record]]
sequence_chain = "MVTSGYKAKTI [EFR3A_Y447]"
category = "bottom end"

[[record]]
sequence_chain = "SCTFTCLLGDR [ETHE1_Y38_Y38C]"
category = "bottom end"

[[record]]
sequence_chain = "DNEALYDTCFR [TUBB2B_Y208_I210T]"
category = "top end"

[[record]]
sequence_chain = "GMRHGHGVRQS [JPH2_Y141_Y141H]"
category = "midrange"

[[record]]
sequence_chain = "LAARYYNWVSF [FLT4_Y1231]"
category = "top end"

[[record]]
sequence_chain = "VNFGAYINDFK [GLB1_Y488_YF]"
category = "bottom end"

[[record]]
sequence_chain = "DYSLKYATDIP [APC_Y1183]"
category = "midrange"

[[record]]
sequence_chain = "PVDGEYFTLQI [TP53_Y327_L323V]"
category = "top end"

[[record]]
sequence_chain = "YEEDSYVERSQ [RET_Y905_K907E]"
category = "bottom end"

[[record]]
sequence_chain = "MKKKTYAMGGG [GAN_Y424_I423T]"
category = "top end"

[[record]]
sequence_chain = "HHFAAYFQQGD [GPI_Y351_R347H]"
category = "top end"

[[record]]
sequence_chain = "KWLEQYTQAIE [LSP1_Y234_Q229K]"
category = "bottom end"

[[record]]
sequence_chain = "IINENYDYLKV [NUP98_Y1664_G1669V]"
category = "midrange"

[[record]]
sequence_chain = "RDMNAYIRPSP [MMAA_Y207]"
category = "top end"

[[record]]
sequence_chain = "TWSSSYRSDRL [CRYBB1_Y131]"
category = "bottom end"

[[record]]
sequence_chain = "ALERPYTSKHS [NANS_Y71]"
category = "bottom end"

[[record]]
sequence_chain = "KVIDMYLMGCF [GABRB2_Y308_A304V]"
category = "midrange"

